Assay: in vitro
Conditions: male, human, human saliva
MEASUREMENT NAME: recovery at 4 min, 5 mg/mL (%)
Lab book: enter the figure in %, no units written.

// recovery at 4 min, 5 mg/mL lookup, compound = CNC[C@H](O)c1ccc(O)c(O)c1 [Epi, Epinephrine] , result: 96

====

Test: in vitro
Settings: pig, pH 6.8
MEASUREMENT NAME: Papp at 90 min, 10 mg/mL (×10⁻⁶ cm/s)
Lab book: enter the figure in ×10⁻⁶ cm/s, no units written.

// Papp at 90 min, 10 mg/mL lookup, compound = CNC[C@H](O)c1ccc(O)c(O)c1 [Epi, Epinephrine] , result: 2330

====

Test: in vitro
Details: male, human, human saliva
MEASUREMENT NAME: recovery at 2 min, 5 mg/mL (%)
Lab book: enter the figure in %, no units written.

// recovery at 2 min, 5 mg/mL lookup, molecule = CNC[C@H](O)c1ccc(O)c(O)c1 [Epi, Epinephrine] , result: 96

====

Test: in vitro
Settings: pig, pH 5
MEASUREMENT NAME: Papp at 90 min, 10 mg/mL
Quick note: number first, unit second.

// Papp at 90 min, 10 mg/mL lookup, molecule = CNC[C@H](O)c1ccc(O)c(O)c1 [Epi, Epinephrine] , result: 333 ×10⁻⁶ cm/s
